Assay: Dynamic solubility experiment at 37° C.
Type: physicochemical
Details: SGF, 24 h
Counter-ions that a name gives are not always drawn.
ASSAY_METRIC: Crystalline form change

Cc1cnc(-c2cc(O[C@@H](C)[C@@H](C)O)cc(C(=O)N[C@H](C)c3cnc(C(F)(F)F)nc3)c2F)s1 [Free base crystalline form A]: No
Cc1cnc(-c2cc(O[C@@H](C)[C@@H](C)O)cc(C(=O)N[C@H](C)c3cnc(C(F)(F)F)nc3)c2F)s1 [Crystalline form A of hydrochloride]: Yes^a
Cc1cnc(-c2cc(O[C@@H](C)[C@@H](C)O)cc(C(=O)N[C@H](C)c3cnc(C(F)(F)F)nc3)c2F)s1 [Crystalline form A of maleate]: Yes^a

###

Experiment: Dynamic solubility experiment at 37° C.
Format: physicochemical
Conditions: FeSSIF, 4 h
Counter-ions that a name gives are not always drawn.
ASSAY_METRIC: Crystalline form change

Cc1cnc(-c2cc(O[C@@H](C)[C@@H](C)O)cc(C(=O)N[C@H](C)c3cnc(C(F)(F)F)nc3)c2F)s1 [Crystalline form A of maleate]: Yes^a
Cc1cnc(-c2cc(O[C@@H](C)[C@@H](C)O)cc(C(=O)N[C@H](C)c3cnc(C(F)(F)F)nc3)c2F)s1 [Crystalline form A of hydrochloride]: Yes^a
Cc1cnc(-c2cc(O[C@@H](C)[C@@H](C)O)cc(C(=O)N[C@H](C)c3cnc(C(F)(F)F)nc3)c2F)s1 [Free base crystalline form A]: No

###

Assay: Dynamic solubility experiment at 37° C.
Assay type: physicochemical
Settings: FaSSIF, 4 h
Where a name gives a salt, the structure may show the parent alone.
ASSAY_METRIC: pH of filtrate

# count of solved cases: 2
Cc1cnc(-c2cc(O[C@@H](C)[C@@H](C)O)cc(C(=O)N[C@H](C)c3cnc(C(F)(F)F)nc3)c2F)s1 [Free base crystalline form A]: 6.5
Cc1cnc(-c2cc(O[C@@H](C)[C@@H](C)O)cc(C(=O)N[C@H](C)c3cnc(C(F)(F)F)nc3)c2F)s1 [Crystalline form A of maleate]: 4.7

[P] Cc1cnc(-c2cc(O[C@@H](C)[C@@H](C)O)cc(C(=O)N[C@H](C)c3cnc(C(F)(F)F)nc3)c2F)s1 [Crystalline form A of hydrochloride]
[Q] Cc1cnc(-c2cc(O[C@@H](C)[C@@H](C)O)cc(C(=O)N[C@H](C)c3cnc(C(F)(F)F)nc3)c2F)s1 [Crystalline form A of p-toluenesulfonate]
Task item: // compare measured pH of filtrate between P and Q ; output the lower one Please indicate the selected item by its label.
Reply: Q
(Q: 2.6, P: 5.2)

###

Experiment: Pharmacokinetic assay in mice
Type: in vivo, male ICR mice
Conditions: male, ICR, mouse, plasma; mice, oral intragastric administration, 10 mg/kg
ASSAY_METRIC: Tmax (min)

Cc1cnc(-c2cc(O[C@@H](C)[C@@H](C)O)cc(C(=O)N[C@H](C)c3cnc(C(F)(F)F)nc3)c2F)s1 [Compound of formula I]: 30
Cc1cnc(-c2cc(O[C@@H]3CCOC3)cc(C(=O)N[C@H](C)c3cnc(C(F)(F)F)nc3)c2)s1 [Control compound 1, reference compound]: 30

###

Experiment: Dynamic solubility experiment at 37° C.
Assay type: physicochemical
Conditions: H2O, 4 h
Structures can show the parent of a compound that is named as a salt.
ASSAY_METRIC: pH of filtrate

# count of solved cases: 2
Cc1cnc(-c2cc(O[C@@H](C)[C@@H](C)O)cc(C(=O)N[C@H](C)c3cnc(C(F)(F)F)nc3)c2F)s1 [Crystalline form A of p-toluenesulfonate]: 1.8
Cc1cnc(-c2cc(O[C@@H](C)[C@@H](C)O)cc(C(=O)N[C@H](C)c3cnc(C(F)(F)F)nc3)c2F)s1 [Crystalline form A of hydrochloride]: 2.1

[1] Cc1cnc(-c2cc(O[C@@H](C)[C@@H](C)O)cc(C(=O)N[C@H](C)c3cnc(C(F)(F)F)nc3)c2F)s1 [Crystalline form A of maleate]
[2] Cc1cnc(-c2cc(O[C@@H](C)[C@@H](C)O)cc(C(=O)N[C@H](C)c3cnc(C(F)(F)F)nc3)c2F)s1 [Free base crystalline form A]
Task item: Recorded pH of filtrate values differ for 1 and 2 ; which one is higher? Please indicate the selected item by its label.
Reply: 2
